- Tested Target: PLK3 (human)
- Experimental Details: KINOMEscan competition binding
- Experimental Conditions: compound 10.0 µM
Observation Type: kinase still bound, per cent of control

>  <Compound>
COc1cc(C(=O)NC2CCN(C)CC2)ccc1Nc1ncc2c(n1)N(C1CCCC1)CCC(=O)N2C

>  <Observation Type>
kinase still bound, per cent of control

>  <Result>
0%

$$$$
>  <Compound>
CN1CCN(c2ccc(C(=O)Nc3ncc4c(n3)N(C)c3ccccc3C(=O)N4C)cc2)CC1

>  <Observation Type>
kinase still bound, per cent of control

>  <Result>
100%

$$$$
>  <Compound>
COc1cc(N(C)CCO)ccc1Nc1ncc2c(n1)N(C1CCCC1)CCC(=O)N2C

>  <Observation Type>
kinase still bound, per cent of control

>  <Result>
0%

$$$$
>  <Compound>
COc1cc(N2CCC(C(N)=O)CC2)ccc1Nc1ncc2c(n1)N(C1CCCC1)[C@@H]1CCC[C@@H]1C(=O)N2C

>  <Observation Type>
kinase still bound, per cent of control

>  <Result>
4.3%

$$$$
>  <Compound>
COc1cc(N2CCN(C)CC2)ccc1Nc1ncc2c(n1)N1CCC[C@H]1CC(=O)N2

>  <Observation Type>
kinase still bound, per cent of control

>  <Result>
9.5%

$$$$
